species on record: Homo sapiens; test: Selectivity ratio of IC50 for recombinant human IDO1 S167A mutant expressed in Escherichia coli SG13009(pREP4) to IC50 for recombinant human IDO1 expressed in bacterial expression system
Recorded Ratio IC50 by entry
property name: Ratio IC50

• COc1ccc2c(c1)c1ccc3c(c1n2C)C(=O)C=CC3=O = 39.3
• O=[N+]([O-])c1ccc(Sc2ccc(F)cc2)c2nonc12 = 2
• COc1c(O)ccc2c1CN1CCc3cc4c(cc3C1C2)OCO4 (stereo unspecified) = 28.1
• COc1c(NC(C)=O)c2ccccc2c2ccccc12 = 28.1
• Cc1ccc([S+]([O-])c2ccc([N+](=O)[O-])c3nonc23)cc1 (stereo unspecified) = 0.055
• Cc1cccc2c1c1ccc3c(c1n2C)C(=O)C=CC3=O = 28.1
• Oc1nccc(SCc2ccc(Cl)cc2Cl)n1 = 3
• CC1=CC(C)(C)NC(=S)N1c1cccc2cc(S(N)(=O)=O)ccc12 = 36.2

* * *

test: Cytotoxicity against mouse LLTC cells assessed as reduction in cell viability after 24 hrs by MTT assay; format: cell-based; settings: read-out: LC50
property name: CC50 at 24 h

• Nc1nonc1C(=NO)Nc1ccc(F)c(Cl)c1 = > 5 µM
• O=[N+]([O-])c1ccc(Sc2ccc(F)cc2)c2nonc12 = > 50 µM
• Oc1ccccc1-c1nc2c3ccccc3c3ccccc3c2[nH]1 = > 100 µM
• CC1=NC(SCc2ccc(Cl)cc2Cl)=NC(=O)C1 = > 125 µM

* * *

Recorded pIC50 by entry
target: Indoleamine 2,3-dioxygenase 1 (Homo sapiens, UniProt P14902); assay: Inhibition of recombinant human IDO1 expressed in bacterial expression system using L-Tryptophan as substrate after 25 mins in absence of GSH and presence of tween20 by fluorescence assay
Sequence (P14902 whole entry): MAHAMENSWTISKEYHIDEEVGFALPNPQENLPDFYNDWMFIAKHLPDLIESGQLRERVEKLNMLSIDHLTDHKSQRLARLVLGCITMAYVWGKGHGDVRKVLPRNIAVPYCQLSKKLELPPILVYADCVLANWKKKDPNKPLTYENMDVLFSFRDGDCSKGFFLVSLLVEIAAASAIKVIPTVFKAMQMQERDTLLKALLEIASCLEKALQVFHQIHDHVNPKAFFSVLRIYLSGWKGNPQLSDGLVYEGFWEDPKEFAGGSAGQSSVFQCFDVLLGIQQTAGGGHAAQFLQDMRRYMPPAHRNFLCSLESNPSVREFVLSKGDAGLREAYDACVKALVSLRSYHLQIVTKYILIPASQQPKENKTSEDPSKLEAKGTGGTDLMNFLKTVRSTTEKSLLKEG
pIC50: −log10 of the molar value.
property name: pIC50

* COc1cc2c(cc1OC)[N+]([O-])=C(c1ccccc1)C2=O | 4.22 to 5.39
* O=[N+]([O-])c1ccc(Sc2cccc[n+]2[O-])c2nonc12 | 4.22 to 4.62
* Oc1ccccc1-c1nc2c3ccccc3c3ccccc3c2[nH]1 | 5.05 to 5.48

* * *

target: Indoleamine 2,3-dioxygenase 1 (Homo sapiens, UniProt P14902, S167A)
Sequence (P14902 whole entry S167A): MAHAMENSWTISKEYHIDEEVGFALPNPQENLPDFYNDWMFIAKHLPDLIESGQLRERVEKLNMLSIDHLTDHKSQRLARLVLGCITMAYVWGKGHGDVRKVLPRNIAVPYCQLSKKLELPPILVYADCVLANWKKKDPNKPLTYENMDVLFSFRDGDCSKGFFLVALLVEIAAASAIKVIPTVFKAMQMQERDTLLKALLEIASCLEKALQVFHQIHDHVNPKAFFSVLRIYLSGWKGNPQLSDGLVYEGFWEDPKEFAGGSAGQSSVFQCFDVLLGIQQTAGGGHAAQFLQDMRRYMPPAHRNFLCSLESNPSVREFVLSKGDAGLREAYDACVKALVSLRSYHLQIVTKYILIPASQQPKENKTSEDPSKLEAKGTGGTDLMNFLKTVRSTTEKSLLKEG
Recorded IC50 by entry
property name: IC50

- O=[N+]([O-])c1ccc(Sc2cccc[n+]2[O-])c2nonc12: 108 to 1000 µM
- Fc1ccccc1-c1nc2c3ccccc3c3ccccc3c2[nH]1: 108 µM
- Oc1ccccc1-c1nc2c3ccccc3c3ccccc3c2[nH]1: 26 to 980 µM
- COc1cc2c(cc1OC)[N+]([O-])=C(c1ccccc1)C2=O: 206 to 1000 µM

* * *

species on record: Homo sapiens; test: Selectivity ratio of IC50 for recombinant human IDO1 S167A mutant expressed in Escherichia coli SG13009(pREP4) to IC50 for recombinant human IDO1 expressed in bacterial expression system
Recorded Ratio IC50 by entry
property name: Ratio IC50

• O=[N+]([O-])c1ccc(Sc2cccc[n+]2[O-])c2nonc12 = 5 to 16.7
• Cc1cc(I)ccc1Nc1cc2no[n+]([O-])c2cc1C(=O)O = > 44
• Oc1ccccc1-c1nc2c3ccccc3c3ccccc3c2[nH]1 = 8 to 109
